These data points were gathered from patent US20210380703A1.

- Tgt: Human Fc (human)
- Assay remarks: ELISA; negative control
optical density for assorted binders
All answers are understood in OD, so give the number only.

- Binder: "371_B01 (antibody, V domains shown) VH: EVQLLESGGGLVQPGGSLRLSCAASGFTFDSYSMNWVRQAPGKGLEWVSNINYNSGYTGYADSVKGRFTISRDNSKNTLYLQMNSLRAEDTAVYYCARGATWHDTHLDYWGQGTLVTVSS VL: DIQMTQSPSSLSASVGDRVTITCRASQSILSYVNWYQQKPGKAPKLLIYAATSLASGVPSRFSGSGSGTDFTLTISSLQPEDFATYYCQQSYDLPLTFGGGTKVEIK"
  Test value: 0.464
- Binder: "366_B12 (antibody, V domains shown) VH: EVQLLESGGGLVQPGGSLRLSCAASGFTFSSYSMNWVRQAPGKGLEWVAGINYNSGYKGYADSVKGRFTISRDNSKNTLYLQMNSLRAEDTAVYYCARSANWHDTALDYWGQGTLVTVSS VL: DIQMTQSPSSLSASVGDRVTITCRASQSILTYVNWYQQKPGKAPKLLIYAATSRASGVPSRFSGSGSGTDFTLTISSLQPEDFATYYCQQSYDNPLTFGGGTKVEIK"
  Test value: 0.311
- Binder: "368_D12 (antibody, V domains shown) VH: EVQLLESGGGLVQPGGSLRLSCAASGFTFSSYGMNWVRQAPGKGLEWVSSINYNGGYTSYADSVKGRFTISRDNSKNTLYLQMNSLRAEDTAVYYCARGATWHDTHLDYWGQGTLVTVSS VL: DIQMTQSPSSLSASVGDRVTITCRASQSILSYVNWYQQKPGKAPKLVIYAATSRASGVPSRFSGSGSGTDFTLTISSLQPEDFATYYCQQSYNNPLTFGGGTKVEIK"
  Test value: 0.329
- Binder: "374_A04 (antibody, V domains shown) VH: EVQLLESGGGLVQPGGSLRLSCAASGFTFSSYSMNWVRQAPGKGLEWVAGINYNGGYTSYADSVKGRFTISRDNSKNTLYLQMNSLRAEDTAVYYCARGATWHDTHLDYWGQGTLVTVSS VL: DIQMTQSPSSLSASVGDRVTITCRASQSILTYLNWYQQKPGKAPKLVIYAATSRASGVPSRFSGSGSGTDFTLTISSLQPEDFATYYCQQSYDTPLTFGGGTKVEIK"
  Test value: 0.275

Attention now turns to another entry.
Task: Which measured optical density value corresponds to 365_F06 (antibody, V domains shown) VH: EVQLLESGGGLVQPGGSLRLSCAASGFTFSSYGMNWVRQAPGKGLEWVAGINYNSGYKSYADSVKGRFTISRDNSKNTLYLQMNSLRAEDTAVYYCARSANWHDTALDYWGQGTLVTVSS VL: DIQMTQSPSSLSASVGDRVTITCRASQSILSYVNWYQQKPGKAPKLLIYAATSRASGVPSRFSGSGSGTDFTLTISSLQPEDFATYYCQQSDNLPLTFGGGTKVEIK ?
Output: 0.329
